- assay-name: Brain exposure (brain:plasma ratio, Table 24)
- Assay type: in vivo, Rats
- condition-set: rat, brain and plasma, iv; 1 mg/kg i.v.; avg.; read-out: RATIO: Brain:plasma (Direct)
assay-endpoint: Kp

{"compound": "O=C(COc1ccc2[nH]c(=O)[nH]c2c1)N1CCN(c2ccc(Cl)c(Cl)c2)CC1 [drawing 807]", "numeric-result": 0.07}

---

- tested-system: NMDA receptor (NR1 + NR2 subunits) (Rattus norvegicus, UniProt P35439+Q00960)
- Sequence (Q00960 27-1482, other chains not shown): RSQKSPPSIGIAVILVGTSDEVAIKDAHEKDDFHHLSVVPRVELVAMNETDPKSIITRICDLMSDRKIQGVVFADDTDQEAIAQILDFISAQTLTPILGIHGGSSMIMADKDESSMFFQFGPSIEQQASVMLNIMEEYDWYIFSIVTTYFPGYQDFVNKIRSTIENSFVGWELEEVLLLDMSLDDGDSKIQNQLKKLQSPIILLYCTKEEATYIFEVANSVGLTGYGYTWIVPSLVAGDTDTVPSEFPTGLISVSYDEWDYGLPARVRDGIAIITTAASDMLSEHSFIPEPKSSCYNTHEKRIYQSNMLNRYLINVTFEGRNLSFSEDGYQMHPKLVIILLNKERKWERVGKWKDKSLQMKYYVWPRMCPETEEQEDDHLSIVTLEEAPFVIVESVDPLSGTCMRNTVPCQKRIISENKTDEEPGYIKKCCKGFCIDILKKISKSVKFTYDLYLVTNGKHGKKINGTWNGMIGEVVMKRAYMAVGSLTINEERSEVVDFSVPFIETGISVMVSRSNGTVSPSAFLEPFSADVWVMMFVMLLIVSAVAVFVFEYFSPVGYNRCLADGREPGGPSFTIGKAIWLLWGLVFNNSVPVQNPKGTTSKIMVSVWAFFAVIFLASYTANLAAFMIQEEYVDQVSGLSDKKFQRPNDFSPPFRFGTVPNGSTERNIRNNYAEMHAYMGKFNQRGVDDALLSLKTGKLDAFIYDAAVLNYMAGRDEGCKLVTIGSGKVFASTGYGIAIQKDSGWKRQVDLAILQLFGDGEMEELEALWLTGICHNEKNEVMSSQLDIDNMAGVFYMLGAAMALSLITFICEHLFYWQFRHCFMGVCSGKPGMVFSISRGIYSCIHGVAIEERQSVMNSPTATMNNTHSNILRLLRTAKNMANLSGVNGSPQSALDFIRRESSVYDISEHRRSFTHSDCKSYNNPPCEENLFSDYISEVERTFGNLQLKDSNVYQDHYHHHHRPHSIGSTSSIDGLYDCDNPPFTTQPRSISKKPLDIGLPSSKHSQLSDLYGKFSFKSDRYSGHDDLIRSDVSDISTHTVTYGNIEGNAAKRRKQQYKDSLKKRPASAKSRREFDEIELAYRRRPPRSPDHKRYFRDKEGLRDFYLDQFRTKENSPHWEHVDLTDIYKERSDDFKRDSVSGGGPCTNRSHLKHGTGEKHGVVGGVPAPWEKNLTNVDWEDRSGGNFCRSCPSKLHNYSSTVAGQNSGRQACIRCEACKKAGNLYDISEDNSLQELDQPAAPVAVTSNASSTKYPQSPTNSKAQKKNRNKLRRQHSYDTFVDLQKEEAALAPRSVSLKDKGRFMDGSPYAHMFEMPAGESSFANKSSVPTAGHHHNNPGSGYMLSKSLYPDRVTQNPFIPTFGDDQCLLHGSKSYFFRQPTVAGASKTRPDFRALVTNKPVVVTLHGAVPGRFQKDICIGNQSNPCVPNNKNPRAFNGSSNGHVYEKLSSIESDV
- assay-name: Two electrode voltage clamp recording from Xenopus laevis oocytes (pH dependence of NMDA antagonism)
- Assay type: cell-based
- condition-set: pH 6.9; Table 17; read-out: IC50 at pH 6.9
In this section we review reported IC50 values for a set of molecules.
assay-endpoint: IC50

{"molecule": "CS(=O)(=O)Nc1ccc(OCC(O)CNC/C=C/c2ccc(Cl)c(Cl)c2)cc1 (stereo not drawn)", "result": "7 nM"}
{"molecule": "CS(=O)(=O)Nc1ccc(OCC(O)CN2CCN(c3ccc(Cl)c(Cl)c3)CC2)cc1 (stereo not drawn)", "result": "296 nM"}
{"molecule": "CS(=O)(=O)Nc1ccc(OCC(O)CN2CCN(c3ccccc3)CC2)cc1 (stereo not drawn)", "result": "213 nM"}

---

- Tested on: MDR1-MDCK cell monolayers that express the multidrug transporter P-gp
- assay-name: In vitro cell permeability assay to predict brain penetration potential
- Format: in vitro ADME
- Set-up: key: High: when Papp A−B≧3.0×10−6 cm/s, and efflux<3.0; Moderate: when Papp A−B≧3.0×10−6 cm/s, and 10>efflux≧3.0; Low: when either Papp A−B≧3.0×10−6 cm/s, and efflux≧10, or when Papp A−B<3.0×10−6 cm/s
- condition-set: 5 μM, pH 7.4, 2 hr, from Papp A-B and efflux ratio

{"compound": "NC(=O)Nc1ccc(OC[C@@H](O)CN2CCN(c3ccc(Cl)cc3)CC2)cc1 [drawing 803]", "BBB Pene Classification": "Low"}
{"compound": "NC(=O)Nc1ccc(OC[C@@H](O)CN2CCN(c3ccc(Cl)cc3)C2=O)cc1 [drawing 805]", "BBB Pene Classification": "Low"}

---

- assay-name: Oral absorption (p.o. pharmacokinetics, Table 25)
- Format: in vivo, Rats
- condition-set: rat, plasma, 5 mg/kg, 5 MPK, 0-6 hr p.o.

{"compound": "O=c1[nH]c2ccc(OC[C@@H](O)CN3CCN(c4ccc(F)c(F)c4)CC3)cc2[nH]1 [drawing 811]", "Tmax, min": 30}
{"compound": "Cc1ccc(N2CCN(C[C@H](O)COc3ccc4c(c3)CCC(=O)N4)CC2)cc1 [drawing 812]", "Tmax, min": 19.8}

---

- assay-name: Brain exposure (brain:plasma ratio, Table 24)
- Format: in vivo, Rats
- condition-set: rat, brain and plasma, ip, 10 mg/kg; 10 MPK i.p.; avg; read-out: RATIO: Brain:plasma (Direct)

{"compound": "O=C(COc1ccc2[nH]c(=O)oc2c1)N1CCN(c2ccc(Cl)c(Cl)c2)CC1 [drawing 806]", "Kp": 0.33}

---

- tested-system: NMDA receptor (NR1 + NR2 subunits) (Rattus norvegicus, UniProt P35439+Q00960)
- assay-name: Two electrode voltage clamp recording from Xenopus laevis oocytes (pH dependence of NMDA antagonism)
- Assay type: cell-based
- condition-set: pH 7.6; Table 21; read-out: IC50 at pH 7.6
assay-endpoint: log10 of IC50 (log10 of the value in nM)

{"compound": "CS(=O)(=O)Nc1ccc(OCC(=O)NCCNc2ccc(Cl)c(Cl)c2)cc1", "numeric-result": 1.76}
{"compound": "O=C(CCc1ccc(O)cc1)NCCNc1ccc(Cl)c(Cl)c1", "numeric-result": 2.53}
{"compound": "CS(=O)(=O)Nc1ccc(CCC(=O)N2CCN(c3ccc(F)c(F)c3)CC2)cc1", "numeric-result": 3.92}
{"compound": "CS(=O)(=O)Nc1ccc(OCCNCCNc2ccc(Cl)c(Cl)c2)cc1", "numeric-result": 1.56}
{"compound": "CS(=O)(=O)Nc1ccc(CCCN2CCN(c3ccc(Cl)c(Cl)c3)C2=O)cc1", "numeric-result": 2.91}
{"compound": "O=C(COc1ccc2[nH]c(=O)oc2c1)N1CCN(c2ccc(Cl)cc2)CC1", "numeric-result": 2.39}
{"compound": "CS(=O)(=O)Nc1ccc(CCC(=O)N2CCN(c3ccc(Cl)c(Cl)c3)CC2)cc1", "numeric-result": 3.73}
{"compound": "CS(=O)(=O)Nc1ccc(CCCN2CCN(c3ccc(Cl)c(Cl)c3)CC2)cc1", "numeric-result": 3.44}
{"compound": "O=C(COc1ccc2[nH]c(=O)oc2c1)N1CCN(c2ccc(Cl)c(Cl)c2)CC1 [drawing 768]", "numeric-result": 1.65}
{"compound": "CS(=O)(=O)Nc1ccc(CCC(=O)NCCNc2ccc(Cl)c(Cl)c2)cc1", "numeric-result": 1.74}

---

- tested-system: rat alpha-1 adrenergic receptor in rat brain membranes
- assay-name: alpha-1 adrenergic receptor binding by displacement of 3[H]-prazosin
- condition-set: 3[H]-prazosin displacement, read-out: α1 IC50

{"compound": "NC(=O)Nc1ccc(OC[C@@H](O)CN2CCN(c3ccc(Cl)cc3)CC2)cc1 [drawing 778]", "tested-system": "rat alpha-1 adrenergic receptor in rat brain membranes", "scale-unit": "nM", "IC50": 340}
{"compound": "CS(=O)(=O)Nc1ccc(OC[C@@H](O)CN2CCN(c3ccc(Cl)cc3)CC2)cc1", "tested-system": "rat alpha-1 adrenergic receptor in rat brain membranes", "scale-unit": "nM", "IC50": 350}
{"compound": "Oc1ccc(OC[C@@H](O)CN2CCN(c3ccc(Cl)cc3)CC2)cc1 [drawing 775]", "tested-system": "rat alpha-1 adrenergic receptor in rat brain membranes", "scale-unit": "nM", "IC50": 720}
{"compound": "O=c1[nH]c2ccc(OC[C@@H](O)CN3CCN(c4ccc(Cl)cc4)CC3)cc2o1 [drawing 776]", "tested-system": "rat alpha-1 adrenergic receptor in rat brain membranes", "scale-unit": "nM", "IC50": 620}

---

Each item that follows carries a reported concentration at 30 minute.
- assay-name: Plasma and brain exposure assessment
- Type: in vivo, Mice
- condition-set: mouse, plasma (free, unbound), ip; mice 10 mg/kg i.p., 30 minute; based on % free fraction; read-out: Free Plasma

{"compound-string": "O=C1N(C[C@H](O)COc2ccc(O)cc2)CCN1c1ccc(Cl)cc1", "concentration at 30 minute / nM": 94}
{"compound-string": "NC(=O)Nc1ccc(OC[C@@H](O)CN2CCN(c3ccc(Cl)cc3)CC2)cc1", "concentration at 30 minute / nM": 542}
{"compound-string": "O=C(COc1ccc2[nH]c(=O)oc2c1)N1CCN(c2ccc(Cl)c(Cl)c2)CC1", "concentration at 30 minute / nM": 145}

---

- assay-name: Brain exposure (brain:plasma ratio, Table 24)
- Format: in vivo, Rats
- condition-set: rat, brain and plasma, iv, 3 mg/kg; 3 MPK i.v.; 30 m; read-out: RATIO: Brain:plasma (Direct)
Each item that follows carries a reported Kp at 30 min.

{"compound": "Cc1ccc(N2CCN(C[C@H](O)COc3ccc4[nH]c(=O)oc4c3)CC2)cc1 [drawing 801]", "Kp at 30 min": 2.3}
{"compound": "O=C1N(C[C@H](O)COc2ccc(O)cc2)CCN1c1ccc(Cl)cc1 [drawing 804]", "Kp at 30 min": 0.68}
{"compound": "Oc1ccc(OC[C@@H](O)CN2CCN(c3ccc(Cl)cc3)CC2)cc1 [drawing 800]", "Kp at 30 min": 11}
{"compound": "Oc1ccc(OC[C@@H](O)CSc2nc3cc(Cl)c(Cl)cc3[nH]2)cc1 [drawing 808]", "Kp at 30 min": 0.15}

---

- assay-name: Plasma half-life (i.v./i.p. pharmacokinetics, Table 23)
- Assay type: in vivo, Rats
- condition-set: rat, iv, 3 mg/kg, 3MPK i.v.
- Method: Animals were fasted overnight prior to dose administration and food returned to the animals two hours after dosing. […] The supernatant fractions were analyzed by LC-MS/MS operating in multiple reaction monitoring mode (MRM). The amount of parent compound in each sample was calculated by comparing the response of the analyte in the sample to that of a standard curve.

{"compound-string": "CS(=O)(=O)Nc1ccc(OC[C@@H](O)CN2CCN(c3ccc(Cl)c(Cl)c3)CC2)cc1", "Cmax (ng/mL)": 1070}

---

- assay-name: Brain exposure (brain:plasma ratio, Table 24)
- Format: in vivo, Rats
- condition-set: rat, brain and plasma, ip, 10 mg/kg; 10 MPK i.p.; 2 hr; read-out: RATIO: Brain:plasma (Direct)
assay-endpoint: Kp at 2 h

{"compound": "O=C(COc1ccc2[nH]c(=O)oc2c1)N1CCN(c2ccc(Cl)c(Cl)c2)CC1 [drawing 806]", "assay-endpoint": "Kp at 2 h", "result": 0.36}
